system: Vero; assay: Compound was tested for inhibition against herpes simplex virus (HSV-2) infected vero cells; type: functional, cell-based; details: Chlorocebus sabaeus
// values below are reported EC50

compound	measured target	EC50
COC(=O)C(C)NP(=O)(OCCOCn1cnc2c(O)nc(N)nc21)Oc1ccccc1 (configuration not stated)	Vero	> 100 µM
Nc1nc2c(ncn2COCCO)c(=O)[nH]1	Vero	3 µM
